Assign pEC50 to each entry below.
- study.system: hAT1R (Homo sapiens, UniProt P30556)
- Sequence (P30556 1-359): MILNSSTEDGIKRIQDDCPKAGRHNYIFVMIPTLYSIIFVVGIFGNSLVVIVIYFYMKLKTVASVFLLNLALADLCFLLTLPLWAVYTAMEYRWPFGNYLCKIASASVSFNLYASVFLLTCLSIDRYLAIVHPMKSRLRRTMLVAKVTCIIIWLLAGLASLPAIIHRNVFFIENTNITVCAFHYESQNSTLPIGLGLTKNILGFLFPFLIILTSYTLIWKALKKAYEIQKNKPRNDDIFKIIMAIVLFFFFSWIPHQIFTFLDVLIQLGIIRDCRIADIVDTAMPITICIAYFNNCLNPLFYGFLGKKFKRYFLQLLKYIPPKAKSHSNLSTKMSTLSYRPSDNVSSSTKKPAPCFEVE
- protocol.description: cell-based
- measurement.conditions: Low AT1R Expression; read-out: BRET β-Arrestin2 Low AT1R Expression EC50
Numbers only, as −log10 of the molar value.

Example entries and their recorded answers appear below.
CCCCC1=NC2(CCOC2)C(=O)N1Cc1ccc(-c2cc(-c3ccccc3)ccc2-c2nnn[nH]2)cc1 (single isomer, unassigned) [Example 147] = 6.96
CCc1nc2c(C)cc(C)nc2n1Cc1ccc(-c2cc(-c3ccccc3OC)ccc2-c2nn[nH]n2)cc1 = 7.92
CCc1nc2c(C)cc(C)nc2n1Cc1ccc(-c2cc(-c3cc(F)cc(F)c3)ccc2-c2nn[nH]n2)cc1 = 7.85
CCc1nc2c(C)cc(C)nc2n1Cc1ccc(-c2cc(-c3cncc(C)c3)ccc2-c2nn[nH]n2)cc1 = 7.03
CCc1nc2c(C)cc(C)nc2n1Cc1ccc(-c2cc(-c3ccccc3OC(F)(F)F)ccc2-c2nn[nH]n2)cc1 = 7.53
CCCC1=NC2(CCCC2)C(=O)N1Cc1ccc(-c2cc(-c3ccccc3)ccc2-c2nn[nH]n2)cc1 = 7.44

// next entry
Input line: Lab note: need pEC50 for CCCCC1=NC2(CCCC2)C(=O)N1Cc1ccc(-c2cc(-c3cccc(F)c3)ccc2-c2nn[nH]n2)cc1 on hAT1R (Homo sapiens, UniProt P30556), anyone have it?
Output line: 7.76

----------
- study.system: hAT1R (Homo sapiens)
- Sequence (P30556 1-359): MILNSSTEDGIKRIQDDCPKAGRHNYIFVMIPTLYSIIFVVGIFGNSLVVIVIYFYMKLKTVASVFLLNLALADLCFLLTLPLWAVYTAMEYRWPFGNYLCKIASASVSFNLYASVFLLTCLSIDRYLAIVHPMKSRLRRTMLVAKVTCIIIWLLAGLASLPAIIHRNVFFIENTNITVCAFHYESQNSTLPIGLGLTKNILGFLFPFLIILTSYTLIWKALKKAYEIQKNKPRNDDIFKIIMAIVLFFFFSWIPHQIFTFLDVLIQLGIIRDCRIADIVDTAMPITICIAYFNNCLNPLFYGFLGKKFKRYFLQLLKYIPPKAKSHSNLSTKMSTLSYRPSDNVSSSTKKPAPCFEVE
- protocol.description: BRET Gq biosensor assay, agonist response, HEK293 cells
- Assay type: cell-based
- measurement.conditions: section of the 42nd table directly before the BRET P63 section
measurement.type: EC50

Example entries and their recorded answers appear below.
CCCCC1=NC2(CCCC2)C(=O)N1Cc1ccc(-c2cc(Oc3ccccc3)ccc2-c2nnn[nH]2)cc1 [Example 454] = > 100000 nM
CCCCC(=O)N(Cc1ccc(-c2cc(-c3ccc4ncccc4c3)ccc2-c2nn[nH]n2)cc1)C1(C(=O)O)CCCCC1 [Example 292] = > 100000 nM
CCCCC(=O)N(Cc1ccc(-c2cc(-c3cccc(OC)n3)ccc2-c2nn[nH]n2)cc1)[C@H](C(=O)O)C(C)C [Example 446] = > 100000 nM
CCOc1nc2cccc(C(=O)O)c2n1Cc1ccc(-c2cc(-c3cnn(C(F)F)c3)ccc2-c2nn[nH]n2)cc1 [Example 327] = 22.1 nM
CCc1nc2c(C)cc(C)nc2n1Cc1ccc(-c2cc(-c3cccc(C)c3)ccc2-c2nn[nH]n2)cc1F [Example 266] = 26.1 nM
CCCCc1nc(Cl)c(C(=O)O)n1Cc1ccc(-c2cc(-n3ccc4ccccc43)ccc2-c2noc(=O)[nH]2)cc1 [Example 408] = > 100000 nM
CCCCc1ncc(C(=O)NC2CC3(CCC3)C2)n1Cc1ccc(-c2cc(-c3ccccc3)ccc2-c2nn[nH]n2)cc1 [Example 351] = 81.1 nM
CCCc1nc(CC)c(C(=O)O)n1Cc1ccc(-c2cc(-c3ccccc3)ccc2-c2nn[nH]n2)cc1 [Example 396] = 274 nM
CCCCc1ncc(C(=O)Nc2nc(C)cs2)n1Cc1ccc(-c2cc(-c3ccccc3)ccc2-c2nn[nH]n2)cc1 [Example 349] = 174 nM
O=C(O)c1cccc2nc(O)n(Cc3ccc(-c4cc(-c5ccccc5)ccc4-c4nn[nH]n4)cc3)c12 [Example 317] = 17100 nM

Look up EC50 for the entries below, preserving their order.
1. CCCCC(=O)N(Cc1ccc(-c2cc(Oc3ccccc3)ccc2-c2nn[nH]n2)cc1)[C@H](C(=O)O)C(C)C [Example 435]
2. CCCc1nc(CC)c(C(=O)OCc2oc(=O)oc2C)n1Cc1ccc(-c2cc(-c3ccccc3)ccc2-c2nn[nH]n2)cc1 [Example 412]
3. CCCCc1nc(Cl)c(C(=O)O)n1Cc1ccc(-c2cc(-n3ccc4ccccc43)ccc2-c2nn[nH]n2)cc1 [Example 417]
4. CCCCc1nc(Cl)c(C(=O)O)n1Cc1ccc(-c2cc(-c3ccccc3)ccc2C(=O)O)cc1 [Example 410]
5. CCCCc1ncc(C(=O)NCCC2CC2)n1Cc1ccc(-c2cc(-c3ccccc3)ccc2-c2nn[nH]n2)cc1 [Example 357]
6. CCCCC(=O)N(Cc1ccc(-c2cc(-c3ccccc3)ccc2-c2nn[nH]n2)cn1)C1(C(=O)O)CCCCC1 [Example 274]

Output line:
1: > 100000 nM; 2: 62.7 nM; 3: > 100000 nM; 4: > 100000 nM; 5: 46.3 nM; 6: 1490 nM

Input line: Returns the measured EC50 for the input molecule. Input: CCCCC(=O)N(Cc1ccc(-c2cc(-c3ccccc3)ccc2-c2nn[nH]n2)nc1)C1(C(=O)O)CCCCC1 [Example 273]
Output line: 155 nM

----------
- study.system: hAT1R (Homo sapiens)
- protocol.description: cell-based
- measurement.conditions: section of the 42nd table ending at r951, example numbering restarts after the DiscoveRx section; read-out: β-arrestin2 EC50
measurement.type: pEC50
Answers are plain numbers, as −log10 of the molar value.

Example entries and their recorded answers appear below.
CCc1nc2c(C)cc(C)nc2n1Cc1ccc(-c2cc(-c3cccc(C)c3)ccc2-c2nnn[nH]2)cn1 [Example 177] = 7.94
CCCCC1=NC2(CCOC2)C(=O)N1Cc1ccc(-c2cc(-c3cc(C)ccn3)ccc2-c2nnn[nH]2)cc1 (single isomer, unassigned) [Example 154] = 7.19
CCc1nc2c(C)cc(C)nc2n1Cc1ccc(-c2cc(-c3ccccc3)ccc2-c2nnn[nH]2)nc1 [Example 176] = 7.51

// next entry
Input line: Returns the measured pEC50 for the input compound. Input: CCc1nc2c(C)cc(C)nc2n1Cc1ccc(-c2cc(Oc3cncnc3)ccc2-c2nnn[nH]2)cc1 [Example 258]
Output line: 7.09

----------
- study.system: AGTR1 (Homo sapiens, UniProt P30556)
- Construct: host or cells: Pathunter CHO-K1 AGTR1 β-arrestin cell line (CHO-K1)
- protocol.description: DiscoveRx β-arrestin2 recruitment assay (enzyme complementation, Pathunter CHO-K1 AGTR1 β-arrestin cell line)
- Assay type: cell-based
- measurement.conditions: DiscoveRx β-arrestin2 recruitment
Assign log10(EC50) to each entry below.
The figures below represent log10 of EC50, where EC50 is stated in nM.

Example entries and their recorded answers appear below.
CCc1nc2c(C)cc(C)nc2n1Cc1ccc(-c2cc(Oc3ccccn3)ccc2-c2nnn[nH]2)cc1 = 0.84
CCCc1cn(-c2ccc(-c3nnn[nH]3)c(-c3ccc(Cn4c(CC)nc5c(C)cc(C)nc54)cc3)c2)nn1 = 1.48
CCOc1nc2cccc(C(=O)O)c2n1Cc1ccc(-c2cc(N3CCC[C@H](C)C3)ccc2-c2nn[nH]n2)cc1 = 1.24
CCCCC(=O)N(Cc1ccc(-c2cc(N3CCCC(C)C3)ccc2-c2nn[nH]n2)cc1)C1(C(=O)O)CCCCC1 (centres unmarked) = 2.15
CCc1nc2c(C)cc(C)nc2n1Cc1ccc(-c2cc(Oc3cncnc3)ccc2-c2nnn[nH]2)cc1 = 1.36

Look up log10(EC50) for the entries below, preserving their order.
1. CCc1nc2c(C)cc(C)nc2n1Cc1ccc(-c2cc(-c3ccc4c(ccn4C)c3)ccc2-c2nn[nH]n2)cc1
2. CCc1nc2c(C)cc(C)nc2n1Cc1ccc(-c2cc(-c3ccccc3)ccc2-c2noc(=O)[nH]2)cc1
3. CCCCC(=O)N(Cc1ccc(-c2cc(-c3cccc(OC)n3)ccc2-c2nn[nH]n2)cc1)C1(C(=O)O)CCCCC1

Output line:
1. 1.20
2. 1.54
3. 2.11
